# assay-protocol: solvent given as SMILES
# condition-notes: in CCCCCCCO
Returns one of satisfied or not satisfied; satisfied when solvation free energy, 298 K is >= -9 kcal/mol.

>  <molecule>
O=C(c1ccccc1)C(O)c1ccccc1 (stereo unspecified)

>  <group>
not satisfied

$$$$
>  <molecule>
c1ccc2c(c1)Cc1ccccc1-2

>  <group>
not satisfied

$$$$
>  <molecule>
CC1CCCCC1

>  <group>
satisfied

$$$$
>  <molecule>
c1ccc2c(c1)ccc1ccccc12

>  <group>
not satisfied

$$$$
>  <molecule>
O=C1c2ccccc2-c2ccccc21

>  <group>
not satisfied

$$$$
>  <molecule>
COc1ccccc1C(=O)O

>  <group>
not satisfied

$$$$
>  <molecule>
CC(C)C

>  <group>
satisfied

$$$$
>  <molecule>
C(=Cc1ccccc1)c1ccccc1

>  <group>
not satisfied

$$$$
>  <molecule>
CCC

>  <group>
satisfied

$$$$
>  <molecule>
CCCC

>  <group>
satisfied

$$$$
>  <molecule>
Cc1ccc2cc(C)ccc2c1

>  <group>
satisfied

$$$$
>  <molecule>
Cc1cccc(C(=O)O)c1

>  <group>
not satisfied

$$$$
>  <molecule>
CC1CCCC1

>  <group>
satisfied

$$$$
>  <molecule>
COc1ccc2cc(C(C)C(=O)O)ccc2c1 (stereo unspecified)

>  <group>
not satisfied

$$$$
>  <molecule>
Cc1c(C(=O)O)cc([N+](=O)[O-])cc1[N+](=O)[O-]

>  <group>
not satisfied

$$$$

* * *

# assay-protocol: solvent given as SMILES
# condition-notes: in OCCOCCO
attribute-measured: solvation free energy, 298 K (kcal/mol)

>  <substance-smiles>
C=CCCCC

>  <unit-of-measure>
kcal/mol

>  <reported-value>
-1.73

$$$$
>  <substance-smiles>
CCC1CCCCC1

>  <unit-of-measure>
kcal/mol

>  <reported-value>
-2.81

$$$$
>  <substance-smiles>
Cc1cc(C)cc(C)c1

>  <unit-of-measure>
kcal/mol

>  <reported-value>
-4.65

$$$$
>  <substance-smiles>
CCCCCCCCCC

>  <unit-of-measure>
kcal/mol

>  <reported-value>
-3.2

$$$$
>  <substance-smiles>
CC(C)O

>  <unit-of-measure>
kcal/mol

>  <reported-value>
-4.77

$$$$
>  <substance-smiles>
CCCCCCCCCCCC

>  <unit-of-measure>
kcal/mol

>  <reported-value>
-4.02

$$$$
>  <substance-smiles>
CC1CCCCC1

>  <unit-of-measure>
kcal/mol

>  <reported-value>
-2.38

$$$$
>  <substance-smiles>
C=CCCCCCC

>  <unit-of-measure>
kcal/mol

>  <reported-value>
-2.55

$$$$
>  <substance-smiles>
CC=CCCC

>  <unit-of-measure>
kcal/mol

>  <reported-value>
-1.92

$$$$
>  <substance-smiles>
Cc1cccc(C)c1

>  <unit-of-measure>
kcal/mol

>  <reported-value>
-4.26

$$$$
>  <substance-smiles>
CCCc1ccccc1

>  <unit-of-measure>
kcal/mol

>  <reported-value>
-4.55

$$$$
>  <substance-smiles>
CC1CCCC1

>  <unit-of-measure>
kcal/mol

>  <reported-value>
-1.85

$$$$
>  <substance-smiles>
c1ccc2c(c1)CCCC2

>  <unit-of-measure>
kcal/mol

>  <reported-value>
-5.9

$$$$

* * *

# assay-protocol: solvent given as SMILES
# condition-notes: in O
Returns one of class 1 or class 0; class 1 when solvation free energy, 298 K is >= -3 kcal/mol.

>  <substance-smiles>
CCOCCOC(=O)c1ccccc1C(=O)OCCOCC

>  <group>
class 0

$$$$
>  <substance-smiles>
OC1CCCCCCCCCCC1

>  <group>
class 0

$$$$
>  <substance-smiles>
Oc1ccc(Cl)c(Cl)c1

>  <group>
class 0

$$$$
>  <substance-smiles>
Brc1cc(Br)c(Br)cc1Br

>  <group>
class 1

$$$$
>  <substance-smiles>
Clc1cc(Cl)c(-c2c(Cl)c(Cl)cc(Cl)c2Cl)cc1Cl

>  <group>
class 1

$$$$
>  <substance-smiles>
CCOC=O

>  <group>
class 1

$$$$
>  <substance-smiles>
Clc1cccc(Cl)c1-c1c(Cl)cccc1Cl

>  <group>
class 1

$$$$
>  <substance-smiles>
CCCCCCCCCCCCCN

>  <group>
class 0

$$$$

* * *

# assay-protocol: solvent given as SMILES
# condition-notes: in OCCO
Returns one of criterion met or criterion not met; criterion met when solvation free energy, 298 K is >= -2 kcal/mol.

>  <substance-smiles>
CC=CCCC

>  <group>
criterion met

$$$$
>  <substance-smiles>
CCCc1ccccc1

>  <group>
criterion not met

$$$$
>  <substance-smiles>
CCC1CCCCC1

>  <group>
criterion not met

$$$$
>  <substance-smiles>
C=CC(=C)C

>  <group>
criterion met

$$$$
>  <substance-smiles>
CCCCCCCCCC

>  <group>
criterion not met

$$$$
>  <substance-smiles>
C1COCCO1

>  <group>
criterion not met

$$$$
>  <substance-smiles>
Ic1ccccc1

>  <group>
criterion not met

$$$$
>  <substance-smiles>
Cc1cc(C)cc(C)c1

>  <group>
criterion not met

$$$$
>  <substance-smiles>
c1ccc2c(c1)CCCC2

>  <group>
criterion not met

$$$$
>  <substance-smiles>
C=CC=C

>  <group>
criterion met

$$$$
>  <substance-smiles>
[HH]

>  <group>
criterion met

$$$$

* * *

# assay-protocol: solvent given as SMILES
# condition-notes: in CCN1CCCC1=O
Response field label takes 1 when solvation free energy, 298 K is strictly below -4 kcal/mol and 0 in all other cases.

>  <substance-smiles>
CCOC(C)(C)C

>  <group>
0

$$$$
>  <substance-smiles>
COC(C)(C)C

>  <group>
0

$$$$
>  <substance-smiles>
CCCC(C)=O

>  <group>
1

$$$$
>  <substance-smiles>
C=CCCCCCC

>  <group>
1

$$$$
>  <substance-smiles>
C=CCCCC

>  <group>
0

$$$$

* * *

# assay-protocol: solvent given as SMILES
# condition-notes: in CN(C)C=O
Measured solvation free energy, 298 K determines class: range 1 = under -6 kcal/mol, range 2 = from -6 kcal/mol up to -3 kcal/mol, range 3 = -3 kcal/mol and over

>  <substance-smiles>
COC(=O)c1ccc(Cl)c([N+](=O)[O-])c1

>  <group>
range 1

$$$$
>  <substance-smiles>
O

>  <group>
range 2

$$$$
>  <substance-smiles>
CCCC

>  <group>
range 3

$$$$
>  <substance-smiles>
[HH]

>  <group>
range 3

$$$$
>  <substance-smiles>
FC(Cl)Cl

>  <group>
range 3

$$$$
>  <substance-smiles>
C=CC(=C)C

>  <group>
range 3

$$$$
>  <substance-smiles>
O=C(O)c1ccccc1

>  <group>
range 1

$$$$
>  <substance-smiles>
C=CCCCCCCCCCC

>  <group>
range 1

$$$$
>  <substance-smiles>
COC(=O)c1ccc(I)cc1

>  <group>
range 1

$$$$
>  <substance-smiles>
C#CCCCC

>  <group>
range 2

$$$$

* * *

# assay-protocol: solvent given as SMILES
# condition-notes: in CCC(C)CO

>  <substance-smiles>
CC(C)C

>  <solvation free energy, 298 K / kcal/mol>
-1.8

$$$$
>  <substance-smiles>
C=CC=C

>  <solvation free energy, 298 K / kcal/mol>
-2.06

$$$$
>  <substance-smiles>
CCCl

>  <solvation free energy, 298 K / kcal/mol>
-2.4

$$$$
>  <substance-smiles>
Cc1cccc(C(=O)O)c1

>  <solvation free energy, 298 K / kcal/mol>
-9.88

$$$$
>  <substance-smiles>
CCC

>  <solvation free energy, 298 K / kcal/mol>
-1.32

$$$$
>  <substance-smiles>
CCCC

>  <solvation free energy, 298 K / kcal/mol>
-2.03

$$$$

* * *

# assay-protocol: solvent given as SMILES
# condition-notes: in CN1CCCC1=O
Measured solvation free energy, 298 K determines class: L = under -5 kcal/mol, M = from -5 kcal/mol up to -2 kcal/mol, H = -2 kcal/mol and over

>  <substance-smiles>
CCCC

>  <group>
H

$$$$
>  <substance-smiles>
FC(F)F

>  <group>
H

$$$$
>  <substance-smiles>
c1ccc2c(c1)oc1ccccc12

>  <group>
L

$$$$
>  <substance-smiles>
CCC(C)(C)C

>  <group>
M

$$$$
>  <substance-smiles>
CC(F)(F)Cl

>  <group>
M

$$$$
>  <substance-smiles>
CCCOC(C)=O

>  <group>
M

$$$$
>  <substance-smiles>
CC1CCCCC1

>  <group>
M

$$$$
>  <substance-smiles>
c1ccc2c(c1)Cc1ccccc1-2

>  <group>
L

$$$$
>  <substance-smiles>
C#CCCCC

>  <group>
M

$$$$

* * *

solvation free energy, 298 K listing for selected molecules.
# assay-protocol: solvent given as SMILES
# condition-notes: in CCNC(C)=O
attribute-measured: solvation free energy, 298 K (kcal/mol)

>  <substance-smiles>
ClC(Cl)Cl

>  <attribute-measured>
solvation free energy, 298 K

>  <reported-value>
-4.57

$$$$
>  <substance-smiles>
C=CCCCC

>  <attribute-measured>
solvation free energy, 298 K

>  <reported-value>
-3.04

$$$$
>  <substance-smiles>
CCOC(C)(C)C

>  <attribute-measured>
solvation free energy, 298 K

>  <reported-value>
-3.49

$$$$
>  <substance-smiles>
CCCC(C)=O

>  <attribute-measured>
solvation free energy, 298 K

>  <reported-value>
-4.61

$$$$
>  <substance-smiles>
C=CCCCCCC

>  <attribute-measured>
solvation free energy, 298 K

>  <reported-value>
-4.23

$$$$
>  <substance-smiles>
COC(C)(C)C

>  <attribute-measured>
solvation free energy, 298 K

>  <reported-value>
-3.26

$$$$
>  <substance-smiles>
CC(C)O

>  <attribute-measured>
solvation free energy, 298 K

>  <reported-value>
-5.09

$$$$
>  <substance-smiles>
C=CC(=C)C

>  <attribute-measured>
solvation free energy, 298 K

>  <reported-value>
-2.81

$$$$
